- assay details: chemical genetic growth profiling, strain panel (AID 1159580);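 further: tested at 20 µM; growth read once vehicle control cultures reached saturation at 30 °C; 1 = growth at the plate median or of vehicle wells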
- run parameters: S. cerevisiae deletion strains, growth OD, locus YOL012C, strain htz1
In all, about 5,500 compounds went through this assay and about 2,000 (36%) were called active. Another 18% or so got no clear call; they are omitted. Some of the results follow.
metric name: normalized growth
Reply briefly: the number, and no unit.

Worked examples follow.
CC(=O)Nc1ccc(OC(=O)c2ccccc2O)cc1    0.544
NCCc1cccc(O)c1    0.834
CCC(CCC(C)[C@H]1CCC2C3CC=C4C[C@@H](O)CC[C@]4(C)C3CC[C@@]21C)C(C)C (stereo not given in full)    0.713

Consider the compound COC(=O)C1=C(C)NC(C)=C(C(=O)OCCN(C)Cc2ccccc2)C1c1cccc([N+](=O)[O-])c1 (stereo not given) . State its measured normalized growth.
0.795

Consider the compound COc1ccc(-c2coc3cc(O)cc(O)c3c2=O)cc1 . State its measured normalized growth.
0.231

Consider the compound Nc1ccc(C(=O)Oc2ccccc2)c(O)c1 . State its measured normalized growth.
1.98

Consider the compound CC(=O)Nc1cccc(O)c1 . State its measured normalized growth.
0.695

Consider the compound CN(C)CCC=C1c2ccccc2C=Cc2ccccc21 . State its measured normalized growth.
0.956

Consider the compound O=C1CC[C@]23C=CC(=O)NCCCCNCCCNC(=O)/C=C/c4ccc(c2c4)O[C@@H]3C1 . State its measured normalized growth.
0.612

---

- assay details: chemical genetic growth profiling, strain panel (AID 1159580)
- run parameters: S. cerevisiae deletion strains, growth OD, locus YNL006W, strain LST8, hits give low values
Among all 5,500 compounds or so, about 2,000 (36%) were called active. Another 18% or so got no clear call; they are omitted. This is one part of the list.
metric name: normalized growth
Reply briefly: the number, and no unit.

Worked examples follow.
CC(C)(C)c1cc2nc(C(F)(F)F)cc(NNC(=O)c3ccc(Cl)cc3)n2n1    0.988
CC(C)(C)c1csc(NC(=O)Nc2ccc(Cl)cc2)n1    0.979
COc1ccc(C2CC(c3ccccc3)=Nc3ccccc3S2)cc1OC (stereo unspecified)    0.988

Consider the compound CCC(C)COC(=O)/C=C/c1ccc(N=Cc2ccc(OC)cc2)cc1 (stereo unspecified) . State its measured normalized growth.
0.972

Consider the compound Clc1ccc(-c2csc(Nc3ccccc3)n2)s1 . State its measured normalized growth.
0.932

Consider the compound Cc1cc(C(=O)N(c2ccccc2)C(C)C2CC2)c(Cl)cc1Cl (stereo unspecified) . State its measured normalized growth.
0.989

Consider the compound CC(C)c1ccc(-c2cc(=O)c3ccccc3o2)cc1 . State its measured normalized growth.
0.932

Consider the compound CCCc1cnc(N2CCN(CC(=O)N(c3ccccc3)C3CCCCC3)CC2)nc1 . State its measured normalized growth.
0.988

Consider the compound C/C(=N/Nc1nc(C(C)(C)C)cs1)c1ccc(Cl)c(Cl)c1 . State its measured normalized growth.
0.986

Consider the compound O=C(NNC(=O)c1csc(-c2cccs2)n1)c1ccc(C(F)(F)F)cc1 . State its measured normalized growth.
0.96

Consider the compound O=C(CSCc1nc(-c2ccc(Cl)cc2)cs1)N/N=C\c1cccs1 . State its measured normalized growth.
0.973

---

- assay details: chemical genetic growth profiling, strain panel (AID 1159580)
- run parameters: S. cerevisiae deletion strains, growth OD, locus YKL048C, strain ELM1
Hit rate of the full screen: of about 5,500 compounds, about 2,000 (36%) were called active. Not shown: some 18% with an inconclusive outcome. Cut-off read from the data, not from the text of the source: active = normalized growth mostly below about 0.91 (no sharp cut-off); inconclusive = no clear call, values can overlap the other calls; inactive = mostly above about 0.92. Some of the results follow.
Result category, one only: active, inactive

O=C(NNC(=O)c1csc(-c2cccs2)n1)c1ccc(C(F)(F)F)cc1    inactive
CC(C)(C)c1csc(NC(=O)c2ccc(Cl)cc2Cl)n1    inactive
Cc1csc2ncnc(N/N=C\c3ccccc3Cl)c12    inactive
O=C1c2ccccc2O[C@@H](c2ccccc2)[C@@H]1NCc1ccccc1    inactive

Test call, this compound: CC(C)(C)c1csc(NC(=O)Nc2ccc(Cl)cc2)n1
active

Test call, this compound: CCCc1cnc(N2CCN(CC(=O)N(c3ccccc3)C3CCCCC3)CC2)nc1
inactive

Test call, this compound: C/C(=N/Nc1nc(C(C)(C)C)cs1)c1ccc(Cl)c(Cl)c1
inactive

---

- assay details: chemical genetic growth profiling, strain panel (AID 1159580)
- run parameters: S. cerevisiae deletion strains, growth OD, locus YLR330W, strain CHS5, hits give low values
The whole screen tested about 5,500 compounds, of which about 2,000 (36%) were called active. Inconclusive results (about 18%) are left out. This is one part of the list.
Rule: normalized growth below 1 gives 1 (yes), anything at or above gives 0 (no).

Lab log: compare recorded normalized growth with 1; is it strictly lower for ClC(Cl)=C(c1ccc(Cl)cc1)c1ccc(Cl)cc1 ?
1 (yes)

Lab log: compare recorded normalized growth with 1; is it strictly lower for C[n+]1cc2c3c(ccc2c2ccc4cc5c(cc4c21)OCO5)OCO3 ?
1 (yes)

Lab log: compare recorded normalized growth with 1; is it strictly lower for COc1ccc(C(=O)/C=C/c2ccccc2)cc1 ?
1 (yes)

Lab log: compare recorded normalized growth with 1; is it strictly lower for NC(=O)CC[C@@H](N)C(=O)O ?
0 (no)

Lab log: compare recorded normalized growth with 1; is it strictly lower for COc1ccc2cc3[n+](cc2c1OC)CCc1cc2c(cc1-3)OCO2 ?
1 (yes)

Lab log: compare recorded normalized growth with 1; is it strictly lower for C=CCCCCCCCCCCCC(O)CC(O)CO (centres undefined) ?
1 (yes)

Lab log: compare recorded normalized growth with 1; is it strictly lower for O=C1c2c(O)ccc(O)c2C(=O)c2c(NCCNCCO)ccc(NCCNCCO)c21 ?
0 (no)

---

The reader will find reported normalized growth values listed item by item below.
- assay details: chemical genetic growth profiling, strain panel (AID 1159580);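 further: tested at 20 µM; growth read once vehicle control cultures reached saturation at 30 °C; 1 = growth at the plate median or of vehicle wells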
- run parameters: S. cerevisiae deletion strains, growth OD, locus YLL041C, strain sdh2, hits give low values
Out of some 5,500 compounds screened, about 2,000 (36%) were called active. Not shown: some 18% with an inconclusive outcome. Some of the results follow.
Reply briefly: the number, and no unit.

NS(=O)(=O)c1cc2c(cc1C(F)(F)F)NCNS2(=O)=O    0.997
COc1cc([C@@H]2c3cc4c(cc3C(O[C@@H]3O[C@@H]5CO[C@@H](c6cccs6)OC5[C@H](O)[C@H]3O)C3COC(=O)[C@@H]32)OCO4)cc(OC)c1O (stereo partly specified)    0.967
O=C1CN2Cc3c(ccc(Cl)c3Cl)N=C2N1    0.975
Cc1cc2cc3c(C)cc(=O)oc3c(C)c2o1    1.01
O=C(O)/C=C(\CC(=O)O)C(=O)O    1
FC(F)(F)C(Cl)Br (stereo unspecified)    1.02
C/C(=C\C(=O)OCCCCCCCCC(=O)O)C[C@@H]1OC[C@H](C[C@@H]2O[C@H]2[C@@H](C)[C@H](C)O)[C@@H](O)[C@H]1O    0.965
O=C(O)c1cn(-c2ccc(F)cc2)c2cc(N3CCNCC3)c(F)cc2c1=O    0.977
Nc1nnc(-c2cccc(Cl)c2Cl)c(N)n1    1.02
O=c1cc(-c2ccc(O)cc2)oc2ccc(O)cc12    0.995

Continue with the compound presented below.
Consider the compound O=C1CCc2cc(OCCCCc3nnnn3C3CCCCC3)ccc2N1 . State its measured normalized growth.
0.991

---

- assay details: chemical genetic growth profiling, strain panel (AID 1159580);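 further: tested at 20 µM; growth read once vehicle control cultures reached saturation at 30 °C; 1 = growth at the plate median or of vehicle wells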
- run parameters: S. cerevisiae deletion strains, growth OD, locus YOR070C, strain gyp1
Among all 5,500 compounds or so, about 2,000 (36%) were called active. Roughly 18% stayed inconclusive and do not appear here. No stated cut-off is given here; in the data, active means normalized growth mostly below about 0.91 (no sharp cut-off); inconclusive means no clear call, values can overlap the other calls; inactive means mostly above about 0.92. The list shows a part of the results.
Result category, one only: true (1) (active), false (0) (inactive)

O=C1c2c(O)ccc(O)c2C(=O)c2c(NCCNCCO)ccc(NCCNCCO)c21    true (1)
CN(C)C(=O)Oc1cc(OC(=O)N(C)C)cc(C(O)CNC(C)(C)C)c1 (configuration not stated)    false (0)
Nc1ccc(C(=O)O)c(O)c1    false (0)

Test call, this compound: CC(=O)Nc1ccc(OC(=O)c2ccccc2O)cc1
false (0)

Test call, this compound: O=c1c(-c2ccccc2)coc2cc(O)cc(O)c12
false (0)

Test call, this compound: C=C1C2CC[C@@]3(C)[C@H](c4ccoc4)OC(=O)C[C@]13O[C@H]1CC(=O)C(C)(C)[C@H](C(O)C(=O)OC)[C@@]21C (some centres not stated)
false (0)

Test call, this compound: CC(=O)N(O)CCCCCNC(=O)CCC(=O)N(O)CCCCCNC(=O)CCC(=O)N(O)CCCCCN
false (0)

---

- assay details: chemical genetic growth profiling, strain panel (AID 1159580);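 further: tested at 20 µM; growth read once vehicle control cultures reached saturation at 30 °C; 1 = growth at the plate median or of vehicle wells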
- run parameters: S. cerevisiae deletion strains, growth OD, locus YMR219W, strain ESC1, hits give low values
Screen size: about 5,500 compounds; about 2,000 (36%) were called active. Not shown: some 18% with an inconclusive outcome. The list shows a part of the results.
metric name: normalized growth
Reply briefly: the number, and no unit.

Worked examples follow.
O=C(NNC(=O)c1ccccc1[N+](=O)[O-])c1ccc(Cl)cc1    1.02
Cc1c(C)c(C)c(CO)c(C)c1C    1.01
Cc1cc(C(F)(F)F)c(C#N)c(=O)[nH]1    1.01
CCOC(=O)c1ccc2oc3ccc(O)cc3c(=O)c2c1    1
CCCCCCCCCCc1ccc(-c2ccccc2)cc1    0.998

Consider the compound Cc1ccc(C(=O)c2ccccc2[N+](=O)[O-])cc1 . State its measured normalized growth.
0.98

Consider the compound CC1(C)CC(=O)c2c(S(C)(=O)=O)sc(Br)c2C1 . State its measured normalized growth.
0.993

Just for reference, PubChem BioAssay AID1159580 is where these values come from.
